protocol.notes: in vitro
condition.info: mouse, peritoneal macrophages
Description: Cytotoxicity against mouse peritoneal Macrophage cells assessed as reduction in cell viability incubated for 3 days by fluorimetry
compounds and their reported IC90 at 72 h
Please give a number only; it is taken to be in µM.

Field: example entries. Status: answers known.
>  <compound>
COc1ccc(C(=O)N2CCCC(c3cc4ncccc4[nH]3)C2)cc1OC (centres undefined)

>  <unit.of.measurement>
µM

>  <IC90 at 72 h>
64

$$$$
>  <compound>
O=C(c1ccc(F)cc1)N1CCCC(c2cc3nc(Cl)ccc3[nH]2)C1 (centres undefined)

>  <unit.of.measurement>
µM

>  <IC90 at 72 h>
64

$$$$
>  <compound>
O=C(c1ccc(F)cc1)N1CC=C(c2cc3ncccc3[nH]2)CC1

>  <unit.of.measurement>
µM

>  <IC90 at 72 h>
64

$$$$
>  <compound>
O=C(CCc1nc2ncc(Cl)cc2[nH]1)Nc1cccc(F)c1

>  <unit.of.measurement>
µM

>  <IC90 at 72 h>
64

$$$$
>  <compound>
CN(C(=O)c1ccccc1)c1cccc(-c2cc3ncccc3[nH]2)c1

>  <unit.of.measurement>
µM

>  <IC90 at 72 h>
59.7

$$$$
>  <compound>
O=C(c1ccc(F)cc1)N1CCCC(c2cc3nc(C(F)(F)F)ccc3[nH]2)C1 (centres undefined)

>  <unit.of.measurement>
µM

>  <IC90 at 72 h>
64

$$$$
>  <compound>
O=C(c1cc(C(F)(F)F)no1)N1CCCC(c2cc3ncc(-c4ccccc4)cc3[nH]2)C1 (centres undefined)

>  <unit.of.measurement>
µM

>  <IC90 at 72 h>
59.7

$$$$
>  <compound>
CC(C)(O)c1cc(C(=O)N2CCCC(c3cc4ncccc4[nH]3)C2)on1 (centres undefined)

>  <unit.of.measurement>
µM

>  <IC90 at 72 h>
64

$$$$

Enquiry: Need IC90 at 72 h of O=C(c1ccc(F)cc1)N1CCCC(c2cc3nc(N4CCCC4)ccc3[nH]2)C1 (centres undefined) , thanks.
Return: 59.7

Enquiry: Fill in the blank: the reported IC90 at 72 h of `O=C(c1ccccc1)N1CC=C(c2cc3ncccc3[nH]2)CC1` is ____.
Return: 64

Enquiry: Bench note: what IC90 at 72 h did O=C(c1ccccn1)N1CCCC(c2cc3ncccc3[nH]2)C1 (centres undefined) show?
Return: 64

Enquiry: // query IC90 at 72 h value for entry `O=C(NCCc1nc2ccccc2[nH]1)c1ccccc1`
Return: 64

Enquiry: Look up IC90 at 72 h: COc1cccc2[nH]c(C(=O)N3CCCC(c4cc5ncccc5[nH]4)C3)cc12 (centres undefined)
Return: 32

Enquiry: Looking for the measured IC90 at 72 h of `CCN(CCC(=O)Nc1cccnc1)C(=O)c1ccc(F)cc1` , can you help?
Return: 64

Enquiry: Could you share which IC90 at 72 h value was measured for Cn1nccc1C(=O)N1CCCC(c2cc3ncccc3[nH]2)C1 (centres undefined) ?
Return: 64

Enquiry: // lookup IC90 at 72 h for O=C(c1cc(C2CC2)on1)N1CCCC(c2cc3ncccc3[nH]2)C1 (centres undefined)
Return: 32

Enquiry: Entry COc1ccc(Cl)cc1C(=O)N1CCCC(c2cc3ncccc3[nH]2)C1 (centres undefined) : reported IC90 at 72 h = ?
Return: 32

Enquiry: Look up IC90 at 72 h for this compound: `O=C(c1ccccc1)N1CCC(c2cc3ncccc3[nH]2)CC1`
Return: 64

Enquiry: If you can, please state the reported IC90 at 72 h value of Cc1ccoc1C(=O)N1CCCC(c2cc3ncccc3[nH]2)C1 (centres undefined) .
Return: 64

Enquiry: Can you look up the measured IC90 at 72 h of CC(C)c1cc(C(=O)N2CCCC(O)(c3cc4ncccc4n3S(=O)(=O)c3ccccc3)C2)on1 (centres undefined) for me?
Return: 64

Enquiry: Suppose we examine the compound O=C(c1ccc(F)cc1)N1CCC(c2cc3ncccc3[nH]2)C1 (centres undefined) ; what IC90 at 72 h value has been reported?
Return: 64

Enquiry: Any idea what IC90 at 72 h was measured for O=C(c1ccc(F)cc1)N1CCCC(c2cc3ncccc3[nH]2)C1 (centres undefined) ?
Return: 64

Enquiry: Which value of IC90 at 72 h has been reported for `CC(=O)N1C=C(c2cc3ncccc3[nH]2)CCC1` in the records?
Return: 64

Enquiry: What value of measured IC90 at 72 h is listed for O=C(c1cc(C(F)(F)F)no1)N1CCCC(c2cc3nc(NCc4ccccc4)ccc3[nH]2)C1 (centres undefined) ?
Return: 29.9

Enquiry: Sample `O=C(Nc1ccc(-c2cc3ncccc3[nH]2)cc1)c1ccccc1` — what was its IC90 at 72 h?
Return: 59.7
